meta.source: patent US20060140929A1

# tested-target: thrombin
# assay-explanation: cell-based or functional assay
Reported Relative Activity (ratio of variant IC50/WT IC50), chromogenic thrombin inhibition assay values for the following binders.
Report the value in ratio with no unit label.

Known Relative Activity (ratio of variant IC50/WT IC50), chromogenic thrombin inhibition assay results, listed for orientation:
hirudin mutein M 60 (I29T) (other) VVYTDCTESGQNLCLCEGSVVCGQGNKCTLGSDGEKNQCVTGEGTPKPESHNDGDFEEIPEEYLQ: 1
hirudin mutein M 54 (I29H) (other) VVYTDCTESGQNLCLCEGSVVCGQGNKCHLGSDGEKNQCVTGEGTPKPESHNDGDFEEIPEEYLQ: 1
hirudin mutein M 33 (I29T L30K) (other) VVYTDCTESGQNLCLCEGSVVCGQGNKCTKGSDGEKNQCVTGEGTPKPESHNDGDFEEIPEEYLQ: 1.6
hirudin mutein M 64 (L30G) (other) VVYTDCTESGQNLCLCEGSVVCGQGNKCIGGSDGEKNQCVTGEGTPKPESHNDGDFEEIPEEYLQ: 2.2
hirudin mutein M 31 (I29S L30T) (other) VVYTDCTESGQNLCLCEGSVVCGQGNKCSTGSDGEKNQCVTGEGTPKPESHNDGDFEEIPEEYLQ: 1.1

For the next question, use this binder.
Data request: Identify measured Relative Activity (ratio of variant IC50/WT IC50), chromogenic thrombin inhibition assay associated with hirudin mutein M 59 (I29S) (other) VVYTDCTESGQNLCLCEGSVVCGQGNKCSLGSDGEKNQCVTGEGTPKPESHNDGDFEEIPEEYLQ
Data returned: 1
